System name: BCRP (Homo sapiens, UniProt Q9UNQ0)
Sequence (Q9UNQ0 1-655): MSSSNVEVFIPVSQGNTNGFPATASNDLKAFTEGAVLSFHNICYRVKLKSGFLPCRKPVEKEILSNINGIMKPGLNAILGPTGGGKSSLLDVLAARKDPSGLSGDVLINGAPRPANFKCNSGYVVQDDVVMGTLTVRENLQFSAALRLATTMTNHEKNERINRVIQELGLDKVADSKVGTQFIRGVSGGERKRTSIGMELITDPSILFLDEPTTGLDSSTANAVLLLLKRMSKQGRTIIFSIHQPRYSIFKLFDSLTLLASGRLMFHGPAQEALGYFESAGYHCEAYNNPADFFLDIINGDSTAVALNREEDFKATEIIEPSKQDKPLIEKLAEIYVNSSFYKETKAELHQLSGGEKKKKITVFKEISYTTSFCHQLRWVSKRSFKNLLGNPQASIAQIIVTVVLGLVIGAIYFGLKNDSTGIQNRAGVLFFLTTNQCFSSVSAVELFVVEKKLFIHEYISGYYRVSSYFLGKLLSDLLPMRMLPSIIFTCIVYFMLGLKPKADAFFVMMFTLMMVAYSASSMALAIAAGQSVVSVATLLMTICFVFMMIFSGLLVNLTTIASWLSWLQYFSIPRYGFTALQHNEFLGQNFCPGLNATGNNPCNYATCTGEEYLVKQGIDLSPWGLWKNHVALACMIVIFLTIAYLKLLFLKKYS
Test protocol: Inhibition of RSV transport in BCRP-expressing membrane vesicles
Assay type: biochemical
Design: purchased GenoMembrane Co., Ltd. (Yokohama, Japan) GM0008; host or cells: Sf9 insect cells
Condition parameters: human
Endpoint: inhibition at 0.001 μM

Measured on BCRP (Homo sapiens, UniProt Q9UNQ0), COC(=O)[C@H](c1ccccc1Cl)N1CCc2sccc2C1 [CP, clopidogrel] has a documented inhibition at 0.001 μM of 56.9%
